- target.of.assay: DCLK1 (human) (UniProt O15075)
- Sequence (O15075 whole entry, looked up): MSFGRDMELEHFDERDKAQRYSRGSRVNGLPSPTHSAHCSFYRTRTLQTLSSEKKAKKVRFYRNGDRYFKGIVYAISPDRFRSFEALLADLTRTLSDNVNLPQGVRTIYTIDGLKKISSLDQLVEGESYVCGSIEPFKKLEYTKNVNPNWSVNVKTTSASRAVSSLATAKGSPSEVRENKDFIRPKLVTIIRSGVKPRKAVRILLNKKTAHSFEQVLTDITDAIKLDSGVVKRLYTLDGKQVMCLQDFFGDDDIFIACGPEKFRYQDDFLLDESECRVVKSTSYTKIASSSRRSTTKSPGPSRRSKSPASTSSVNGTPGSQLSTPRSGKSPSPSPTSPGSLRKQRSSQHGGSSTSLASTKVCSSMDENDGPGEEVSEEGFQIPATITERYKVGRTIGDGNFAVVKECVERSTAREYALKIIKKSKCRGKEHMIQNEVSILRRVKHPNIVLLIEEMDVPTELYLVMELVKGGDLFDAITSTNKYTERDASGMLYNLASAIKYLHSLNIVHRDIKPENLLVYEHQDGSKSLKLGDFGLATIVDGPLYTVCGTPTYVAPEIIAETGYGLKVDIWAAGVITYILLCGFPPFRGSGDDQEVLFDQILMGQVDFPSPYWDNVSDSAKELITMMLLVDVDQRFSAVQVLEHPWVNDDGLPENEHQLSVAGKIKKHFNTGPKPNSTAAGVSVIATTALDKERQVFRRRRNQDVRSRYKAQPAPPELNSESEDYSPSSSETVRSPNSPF
- assay.summary: KINOMEscan competition binding
- condition.context: compound 10.0 µM
Please note: kinase still bound, per cent of control exactly at 80% is not satisfied. Only values below 80% get satisfied.

See these solved cases before continuing.
- test.smiles: "CCN1CCN(C(=O)Cc2ccc(Nc3ncc(F)c(Nc4ccc(C(=O)Nc5ccccc5Cl)cc4)n3)cc2)CC1"
  class.assignment: "satisfied"
- test.smiles: "C[C@@H](Oc1cc(-c2cnn(C3CCNCC3)c2)cnc1N)c1c(Cl)ccc(F)c1Cl"
  class.assignment: "satisfied"
- test.smiles: "CCN(CC)CCCCNc1ncc2c(n1)N(C)C(=O)N(c1c(Cl)c(OC)cc(OC)c1Cl)C2"
  class.assignment: "not satisfied"
- test.smiles: "COCC(=O)NC/C=C/c1ccc2ncnc(Nc3ccc(Oc4ccc(C)nc4)c(C)c3)c2c1"
  class.assignment: "not satisfied"
- test.smiles: "COc1ccc(N(C(=O)Oc2c(C)cccc2C)c2ccnc(Nc3ccc(N4CCN(C)CC4)cc3)n2)c(OC)c1"
  class.assignment: "not satisfied"

Challenge: In plain terms, does O=C1NC(=O)/C(=C/c2ccc3nccc(-c4ccncc4)c3c2)S1 come in under 80% for kinase still bound, per cent of control?
Response given: satisfied

Challenge: Next: CS(=O)(=O)N1CCN(Cc2cc3nc(-c4cccc5[nH]ncc45)nc(N4CCOCC4)c3s2)CC1
Response given: not satisfied

Challenge: # repeat for O=c1cc(N2CCOCC2)oc2c(-c3cccc4c3sc3ccccc34)cccc12
Response given: not satisfied

Challenge: Same again, this time with C=CC(=O)Nc1cc(-n2c(=O)ccc3cnc4ccc(-c5cn[nH]c5)cc4c32)ccc1C
Response given: not satisfied

Challenge: Okay, and NC(=O)Nc1cc(-c2cccc(F)c2)sc1C(=O)N[C@@H]1CCCNC1 ?
Response given: satisfied

Challenge: # repeat for COc1cc(N2CCN(C)CC2)ccc1Nc1ncc2c(n1)N(C)c1ccccc1C(=O)N2C
Response given: satisfied

Challenge: Likewise for O=C(Nc1cccc(Nc2ncc(Br)c(NCCc3cnc[nH]3)n2)c1)N1CCCC1 ?
Response given: satisfied

Challenge: Now the compound CNC(=O)c1ccc(Nc2cc(Nc3ccccc3S(=O)(=O)C(C)C)c3cc[nH]c3n2)nc1
Response given: not satisfied

----------
- target.of.assay: PRKAA1 (human)
- assay.summary: KINOMEscan competition binding
- condition.context: compound 10.0 µM
assay.readout: kinase still bound, per cent of control (%)
Give the number; % is assumed, so skip it.

- test.smiles: "N#CCNC(=O)c1ccc(-c2ccnc(Nc3ccc(N4CCOCC4)cc3)n2)cc1"
  target.of.assay: "PRKAA1 (human)"
  kinase still bound, per cent of control, %: 42

Challenge: Kindly state the measured kinase still bound, per cent of control obtained for O=c1cc(N2CCOCC2)oc2c(-c3cccc4c3sc3ccccc34)cccc12 with PRKAA1 (human).
Response given: 100

Challenge: Next molecule: C[C@@H](Oc1cc(-c2cnn(C3CCNCC3)c2)cnc1N)c1c(Cl)ccc(F)c1Cl
Response given: 8

Challenge: Queued: CCN(CC)CCCCNc1ncc2cc(-c3cc(OC)cc(OC)c3)c(NC(=O)NC(C)(C)C)nc2n1
Response given: 100

Challenge: Lookup CS(=O)(=O)N1CCN(Cc2cc3nc(-c4cccc5[nH]ncc45)nc(N4CCOCC4)c3s2)CC1
Response given: 100
